protocol-text: In vivo rat pharmacokinetic studies
measurement-parameters: 20 mg/kg; rat, PO 20 mpk, 1 h, liver/plasma; read-out: L/P Ratio

# molecule, Kp at 1 h
records = [
    ("CC(C)N1CCC(NC(=O)c2nn(C)c3nc(N4CCCCCC4)ccc23)CC1", 275),
    ("CCN1CCC(NC(=O)c2nn(C)c3nc(N4CCCCCC4)ccc23)CC1", 172),
    ("Cn1nc(C(=O)NC2CCN(CCN3CCCCC3)CC2)c2ccc(N3CCCCCC3)nc21", 558),
]

====

Here, each record is paired with measured EC50 data.
Test system: HCV genotype 1b
protocol-text: HCV 1b replicon luciferase assay
Format: cell-based
measurement-parameters: read-out: 1b replicon EC50; Tables 4, 5 and the rat PK section

# molecule, units-of-measure, EC50
rows = [
    ("Cn1nc(C(=O)NC2CCN(CCN3CCCC3)CC2)c2ccc(N3CCCCCC3)nc21", "nM", 900),
    ("CC(C)N1CCC(NC(=O)c2nn(C)c3nc(N4CCCCCC4)ccc23)CC1", "nM", 2200),
    ("Cn1nc(C(=O)NC2CCN(CCN3CCCCC3)CC2)c2ccc(N3CCCCCC3)nc21", "nM", 500),
    ("CCN1CCC(NC(=O)c2nn(C)c3nc(N4CCCCCC4)ccc23)CC1", "nM", 1000),
]

====

assay-target: CYP 2C9 (Homo sapiens)
Construct: For human liver microsome solution, a stock solution (20 mg/mL (4×final)) is used; from tissue; host or cells: human liver microsomes
Sequence (P11712 whole entry): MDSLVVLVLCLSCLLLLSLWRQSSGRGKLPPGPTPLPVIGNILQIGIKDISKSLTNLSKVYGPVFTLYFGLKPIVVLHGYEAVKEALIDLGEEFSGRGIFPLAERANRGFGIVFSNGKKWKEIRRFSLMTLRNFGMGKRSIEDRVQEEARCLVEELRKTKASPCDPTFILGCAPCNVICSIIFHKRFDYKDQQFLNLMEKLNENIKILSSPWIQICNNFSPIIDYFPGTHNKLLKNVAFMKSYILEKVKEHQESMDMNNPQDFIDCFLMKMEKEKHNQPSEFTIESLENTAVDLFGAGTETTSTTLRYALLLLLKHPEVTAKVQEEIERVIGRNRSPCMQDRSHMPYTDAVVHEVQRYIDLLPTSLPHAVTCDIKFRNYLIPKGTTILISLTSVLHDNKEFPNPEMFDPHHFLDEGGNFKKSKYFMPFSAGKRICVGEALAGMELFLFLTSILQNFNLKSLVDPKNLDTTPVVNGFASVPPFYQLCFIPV
protocol-text: CYP inhibition testing, CYP 2C9
Format: in vitro ADME
measurement-parameters: human liver microsomes; >75 = low level of inhibition
Method: Select compounds are tested for CYP inhibition against five different CYP enzymes: CYP 1A2, CYP 2C9, CYP 2C19, CYP 2D6, CYP 3A4. Individual CYP enzymes are incubated with corresponding substrates with no inhibitor (negative control). Individual CYP enzymes are then incubated with corresponding substrates in the presence of test compound. […] Values of 70>v, w, x, y, z>30 indicate moderate level of inhibition of the corresponding enzyme. […]
Catalogue of compounds with associated CYP (% negative controls) 2C9

# molecule, assay-target, CYP (% negative controls) 2C9
data = [
    ("CCC(CC)Oc1ccc2c(C(=O)NC3CCNCC3)n[nH]c2n1", "CYP 2C9 (Homo sapiens)", "84 % negative controls"),
    ("Cn1nc(C(=O)NC2CCNCC2)c2ccc(N3CCCCCC3)nc21.O=C(O)C(F)(F)F.O=C(O)C(F)(F)F", "CYP 2C9 (Homo sapiens)", "92 % negative controls"),
    ("Cn1nc(CCCN2CCCC2)c2ccc(N3CCCCCCC3)nc21", "CYP 2C9 (Homo sapiens)", "141 % negative controls"),
    ("Cn1nc(C(=O)NC2CCN(CCN3CCCCC3)CC2)c2ccc(N3CCCCCC3)nc21", "CYP 2C9 (Homo sapiens)", "91 % negative controls"),
]

====

// reported CYP (% negative controls) 2C19 for each item listed
assay-target: CYP 2C19 (Homo sapiens, UniProt P33261)
Construct: For human liver microsome solution, a stock solution (20 mg/mL (4×final)) is used; from tissue; host or cells: human liver microsomes
Sequence (P33261 whole entry): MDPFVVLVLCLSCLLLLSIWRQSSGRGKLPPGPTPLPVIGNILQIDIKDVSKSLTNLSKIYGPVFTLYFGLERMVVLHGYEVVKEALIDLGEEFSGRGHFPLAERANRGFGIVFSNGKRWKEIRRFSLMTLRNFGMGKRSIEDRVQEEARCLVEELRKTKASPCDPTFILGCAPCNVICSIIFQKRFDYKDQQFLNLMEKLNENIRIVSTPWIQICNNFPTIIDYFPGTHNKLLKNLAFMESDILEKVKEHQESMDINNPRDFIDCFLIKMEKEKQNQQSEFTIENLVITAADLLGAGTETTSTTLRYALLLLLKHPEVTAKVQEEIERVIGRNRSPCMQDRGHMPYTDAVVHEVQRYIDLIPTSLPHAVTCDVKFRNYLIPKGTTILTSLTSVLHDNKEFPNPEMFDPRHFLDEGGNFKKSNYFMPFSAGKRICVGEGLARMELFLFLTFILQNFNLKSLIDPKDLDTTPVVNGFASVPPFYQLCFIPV
protocol-text: CYP inhibition testing, CYP 2C19
Format: in vitro ADME
measurement-parameters: human liver microsomes; >75 = low level of inhibition
property: CYP (% negative controls) 2C19

# molecule, reported-result
rows = [
    ("Cn1nc(C(=O)NC2CCNCC2)c2ccc(N3CCCCCC3)nc21.O=C(O)C(F)(F)F.O=C(O)C(F)(F)F", 78),
    ("Cn1nc(C(=O)NC2CCN(CCN3CCCCC3)CC2)c2ccc(N3CCCCCC3)nc21", 92),
    ("CCC(CC)Oc1ccc2c(C(=O)NC3CCNCC3)n[nH]c2n1", 74),
    ("Cn1nc(CCCN2CCCC2)c2ccc(N3CCCCCCC3)nc21", 72),
]

====

protocol-text: In vivo rat pharmacokinetic studies
measurement-parameters: plasma, 20 mg/kg; rat, PO 20 mpk, 4 h; read-out: Plasma
Each entry below lists one item and its recorded concentration at 4 h value.

# molecule, concentration at 4 h
records = [
    ("CCN1CCC(NC(=O)c2nn(C)c3nc(N4CCCCCC4)ccc23)CC1", "14 ng/mL"),
    ("Cn1nc(C(=O)NC2CCN(CCN3CCCCC3)CC2)c2ccc(N3CCCCCC3)nc21", "10.4 ng/mL"),
    ("CC(C)N1CCC(NC(=O)c2nn(C)c3nc(N4CCCCCC4)ccc23)CC1", "0 ng/mL"),
]

====

protocol-text: In vivo rat pharmacokinetic studies
measurement-parameters: plasma, 20 mg/kg; rat, PO 20 mpk vs IV 1 mpk

# molecule, bioavailability, %
data = [
    ("CC(C)N1CCC(NC(=O)c2nn(C)c3nc(N4CCCCCC4)ccc23)CC1", 2),
    ("Cn1nc(C(=O)NC2CCN(CCN3CCCCC3)CC2)c2ccc(N3CCCCCC3)nc21", 9),
    ("CCN1CCC(NC(=O)c2nn(C)c3nc(N4CCCCCC4)ccc23)CC1", 9),
]

====

protocol-text: Liver microsome stability, rat
Assay type: in vitro ADME, Sprague Dawley rat
measurement-parameters: after 15 min
Entries and their rat liver microsome (RLM), % parent remaining values follow.
property: rat liver microsome (RLM), % parent remaining (% parent remaining)

# compound, units-of-measure, reported-result
data = [
    ("Cn1nc(C(=O)NC2CCN(CCN3CCCC3)CC2)c2ccc(N3CCCCCC3)nc21 [EBP1597]", "% parent remaining", 57),
    ("Cn1nc(C(=O)NC2CCN(CCN3CCCCC3)CC2)c2ccc(N3CCCCCC3)nc21 [compound 1047]", "% parent remaining", 44),
    ("Cn1nc(CCCN2CCCCC2CO)c2ccc(N3CCCCCCC3)nc21 (stereo not shown) [compound 1456]", "% parent remaining", 3.9),
    ("CC1CCCN1CCCc1nn(C)c2nc(N3CCCCCCC3)ccc12 (stereo not shown) [compound 1452]", "% parent remaining", 2),
    ("CCN1CCC(NC(=O)c2nn(C)c3nc(N4CCCCCC4)ccc23)CC1 [compound 1595]", "% parent remaining", 67),
    ("CC1CCCCN1CCOCc1nn(C)c2nc(N3CCCCCC3)ccc12 (stereo not shown) [compound 1549]", "% parent remaining", 52),
    ("Cn1nc(C(=O)NC2CCN(CCN3CCCCC3CO)CC2)c2ccc(N3CCCCCC3)nc21 (stereo not shown) [compound 1559]", "% parent remaining", 57),
    ("Cn1nc(C(=O)NC2CCN(CCN3CCCCC3)CC2)c2ccc(N3CCCCCC3)nc21 [EBP1047]", "% parent remaining", 44),
    ("Cn1nc(C(=O)NC2CCN(CC(F)F)CC2)c2ccc(N3CCCCCC3)nc21 [compound 1110]", "% parent remaining", 10),
    ("CCN1CCC(NC(=O)c2nn(C)c3nc(N4CCCCCC4)ccc23)CC1 [EBP1595]", "% parent remaining", 67),
    ("CC(C)N1CCC(NC(=O)c2nn(C)c3nc(N4CCCCCC4)ccc23)CC1 [EBP1604]", "% parent remaining", 58),
    ("Cn1nc(C(=O)NC2CCNCC2)c2ccc(N3CCCCCC3)nc21.O=C(O)C(F)(F)F.O=C(O)C(F)(F)F [compound 697]", "% parent remaining", 69),
    ("CC1CCC(C)N1CCOCc1nn(C)c2nc(N3CCCCCC3)ccc12 (stereo not shown) [compound 1540]", "% parent remaining", 17),
    ("CCC(CC)Oc1ccc2c(C(=O)NC3CCNCC3)n[nH]c2n1 [compound 726]", "% parent remaining", 83),
    ("Cn1nc(C(=O)NC2CCN(CCN3CCCC3)CC2)c2ccc(N3CCCCCC3)nc21 [compound 1597]", "% parent remaining", 57),
    ("Cn1nc(CCCN2CCCC2)c2ccc(N3CCCCCCC3)nc21 [compound 1171]", "% parent remaining", 1.2),
]

====

protocol-text: Caco-2 permeability testing
Type: in vitro ADME, human
measurement-parameters: human, pH 7.4; Caco-2, A-B, 90 min; read-out: Permeability (second figure of Efflux/permeability), Papp (A-B)

# molecule, Papp A→B at 90 min, 10 µM / ×10⁻⁶ cm/s
rows = [
    ("O=C(NC1CCNCC1)c1nn(Cc2ccccc2Cl)c2nc(N3CCCCCC3)ccc12", 0.4),
]

====

pEC50 for assorted molecules
Test system: HCV genotype 1b
protocol-text: HCV 1b replicon luciferase assay
Type: cell-based
measurement-parameters: Hepatitis C virus, Huh-7, 48 h, Table 1; Huh7 HCV 1b replicon, luciferase reporter, 48 hours; read-out: 1b EC50
pEC50: −log10 of the molar value.
property: pEC50

# molecule, property, reported-result
rows = [
    ("Cn1nc(C(=O)NC2CCN(CC3CC3)CC2)c2ccc(NC3CCCCCCC3)nc21", "pEC50", 6.25),
    ("CCN1CCC(NC(=O)c2nn(C)c3nc(NC4CCCCCCC4)ccc23)CC1", "pEC50", 6.32),
    ("Cn1nc(-c2coc(CC3CCNCC3)n2)c2ccc(N3CCCCCC3)nc21", "pEC50", 5.55),
    ("Cn1nc(C(=O)NC2CCNCC2)c2ccc(NC3CCCCC3)nc21", "pEC50", 5.59),
    ("CC(C)c1ccc(CN(c2ccc3c(C(=O)NC4CCN(CCN5CCCCC5)CC4)nn(C)c3n2)C2CCCCCC2)cc1", "pEC50", 6.18),
    ("CN(c1ccc2c(C(=O)NC3CCN(CC4CCCCC4)CC3)nn(C)c2n1)C1CCCCCC1", "pEC50", 5.80),
    ("Cn1nc(C(=O)NC2CCN(CC(F)F)CC2)c2ccc(N3CCCCCC3)nc21", "pEC50", 5.74),
    ("Cn1nc(C(=O)NC2CCCNC2)c2ccc(N3CCCCCC3)nc21 (centres unmarked)", "pEC50", 5.42),
]
